- Test system: Sonic hedgehog protein (Shh)
- experiment-description: small-molecule binders of Shh protein, primary screen, biochemical, small-molecule microarray, 635/667 nm fluorescence (AID 1151);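 also: Shh protein binding to compounds spotted on small-molecule microarray slides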
- condition-notes: small-molecule microarray binding, 635 nm fluorescence; higher = more signal
Rule: composite z-score of 0.4 or more gives YES; anything lower gives NO.

As a guide, the following entries are already answered.
INSERT INTO measurements (smiles_representation, label) VALUES
  ('COC(=O)[C@@H]1CC[C@H](C)[C@@H](c2ccc(Br)cc2)N1', 'NO'),
  ('C=CC[C@@H]1C=C[C@H](Oc2ccc(C)cc2)[C@@H](COC(=O)NCc2cccc3ccccc23)O1', 'YES');

Prompt: Is it the case that "CC=CC1=C(CO)[C@H](O)[C@H]2O[C@H]2[C@@H]1O" has composite z-score reaching or exceeding 0.4?
Response: YES

Prompt: Is it the case that "COc1ccc(COC(=O)NN=C2C[C@@H](O)[C@@H](O)[C@@H]3[C@@H]4C(=O)N([C@@H](C)c5ccccc5)C(=O)[C@@H]4CC[C@H]23)cc1" has composite z-score reaching or exceeding 0.4?
Response: NO

Prompt: Is it the case that "CO[C@H]1C[C@@H]2C[C@H](O)CC(CC(=O)O[C@@H](C=CCC(C)C)C[C@@H]3CC[C@H](C)[C@@H](C1)O3)O2" has composite z-score reaching or exceeding 0.4?
Response: YES

Prompt: Is it the case that "CCOC(=O)CCN1C(=O)[C@H]2[C@H]3[C@H](O)[C@H](O)CC(=NOCC=C(C)CCC=C(C)C)[C@@H]3CC[C@H]2C1=O" has composite z-score reaching or exceeding 0.4?
Response: YES

Prompt: Is it the case that "OC[C@H]1O[C@H](C#Cc2ccccc2)C=C[C@@H]1O" has composite z-score reaching or exceeding 0.4?
Response: NO

Prompt: Is it the case that "O=C1C[C@H](c2ccccc2)[C@H](c2ccc(Br)cc2)O1" has composite z-score reaching or exceeding 0.4?
Response: NO
